assay.comment: pH-triggered hydrolysis (T1/2) in TRIS buffer at 37° C., HPLC with AZT internal reference
Type: physicochemical
test.context: pH 8, hydrolysis of aminouridine carbamate, process of Example 1
measured.quantity: half-life (days)
Numbers only, in days.

The compound O=C(NC1C(O)[C@@H](CO)O[C@H]1n1ccc(=O)[nH]c1=O)OCC(c1ccccc1)c1ccccc1 (stereo partly shown) showed half-life equal to 12
